Data origin: paper PMC5171214

measured on: type 1 IP3R (IP3R1) (Rattus norvegicus)
Construct: full-length receptor, homotetramer, in saponin-permeabilized DT40 (chicken B cell) cells expressing only IP3R1
Sequence (P29994 whole entry): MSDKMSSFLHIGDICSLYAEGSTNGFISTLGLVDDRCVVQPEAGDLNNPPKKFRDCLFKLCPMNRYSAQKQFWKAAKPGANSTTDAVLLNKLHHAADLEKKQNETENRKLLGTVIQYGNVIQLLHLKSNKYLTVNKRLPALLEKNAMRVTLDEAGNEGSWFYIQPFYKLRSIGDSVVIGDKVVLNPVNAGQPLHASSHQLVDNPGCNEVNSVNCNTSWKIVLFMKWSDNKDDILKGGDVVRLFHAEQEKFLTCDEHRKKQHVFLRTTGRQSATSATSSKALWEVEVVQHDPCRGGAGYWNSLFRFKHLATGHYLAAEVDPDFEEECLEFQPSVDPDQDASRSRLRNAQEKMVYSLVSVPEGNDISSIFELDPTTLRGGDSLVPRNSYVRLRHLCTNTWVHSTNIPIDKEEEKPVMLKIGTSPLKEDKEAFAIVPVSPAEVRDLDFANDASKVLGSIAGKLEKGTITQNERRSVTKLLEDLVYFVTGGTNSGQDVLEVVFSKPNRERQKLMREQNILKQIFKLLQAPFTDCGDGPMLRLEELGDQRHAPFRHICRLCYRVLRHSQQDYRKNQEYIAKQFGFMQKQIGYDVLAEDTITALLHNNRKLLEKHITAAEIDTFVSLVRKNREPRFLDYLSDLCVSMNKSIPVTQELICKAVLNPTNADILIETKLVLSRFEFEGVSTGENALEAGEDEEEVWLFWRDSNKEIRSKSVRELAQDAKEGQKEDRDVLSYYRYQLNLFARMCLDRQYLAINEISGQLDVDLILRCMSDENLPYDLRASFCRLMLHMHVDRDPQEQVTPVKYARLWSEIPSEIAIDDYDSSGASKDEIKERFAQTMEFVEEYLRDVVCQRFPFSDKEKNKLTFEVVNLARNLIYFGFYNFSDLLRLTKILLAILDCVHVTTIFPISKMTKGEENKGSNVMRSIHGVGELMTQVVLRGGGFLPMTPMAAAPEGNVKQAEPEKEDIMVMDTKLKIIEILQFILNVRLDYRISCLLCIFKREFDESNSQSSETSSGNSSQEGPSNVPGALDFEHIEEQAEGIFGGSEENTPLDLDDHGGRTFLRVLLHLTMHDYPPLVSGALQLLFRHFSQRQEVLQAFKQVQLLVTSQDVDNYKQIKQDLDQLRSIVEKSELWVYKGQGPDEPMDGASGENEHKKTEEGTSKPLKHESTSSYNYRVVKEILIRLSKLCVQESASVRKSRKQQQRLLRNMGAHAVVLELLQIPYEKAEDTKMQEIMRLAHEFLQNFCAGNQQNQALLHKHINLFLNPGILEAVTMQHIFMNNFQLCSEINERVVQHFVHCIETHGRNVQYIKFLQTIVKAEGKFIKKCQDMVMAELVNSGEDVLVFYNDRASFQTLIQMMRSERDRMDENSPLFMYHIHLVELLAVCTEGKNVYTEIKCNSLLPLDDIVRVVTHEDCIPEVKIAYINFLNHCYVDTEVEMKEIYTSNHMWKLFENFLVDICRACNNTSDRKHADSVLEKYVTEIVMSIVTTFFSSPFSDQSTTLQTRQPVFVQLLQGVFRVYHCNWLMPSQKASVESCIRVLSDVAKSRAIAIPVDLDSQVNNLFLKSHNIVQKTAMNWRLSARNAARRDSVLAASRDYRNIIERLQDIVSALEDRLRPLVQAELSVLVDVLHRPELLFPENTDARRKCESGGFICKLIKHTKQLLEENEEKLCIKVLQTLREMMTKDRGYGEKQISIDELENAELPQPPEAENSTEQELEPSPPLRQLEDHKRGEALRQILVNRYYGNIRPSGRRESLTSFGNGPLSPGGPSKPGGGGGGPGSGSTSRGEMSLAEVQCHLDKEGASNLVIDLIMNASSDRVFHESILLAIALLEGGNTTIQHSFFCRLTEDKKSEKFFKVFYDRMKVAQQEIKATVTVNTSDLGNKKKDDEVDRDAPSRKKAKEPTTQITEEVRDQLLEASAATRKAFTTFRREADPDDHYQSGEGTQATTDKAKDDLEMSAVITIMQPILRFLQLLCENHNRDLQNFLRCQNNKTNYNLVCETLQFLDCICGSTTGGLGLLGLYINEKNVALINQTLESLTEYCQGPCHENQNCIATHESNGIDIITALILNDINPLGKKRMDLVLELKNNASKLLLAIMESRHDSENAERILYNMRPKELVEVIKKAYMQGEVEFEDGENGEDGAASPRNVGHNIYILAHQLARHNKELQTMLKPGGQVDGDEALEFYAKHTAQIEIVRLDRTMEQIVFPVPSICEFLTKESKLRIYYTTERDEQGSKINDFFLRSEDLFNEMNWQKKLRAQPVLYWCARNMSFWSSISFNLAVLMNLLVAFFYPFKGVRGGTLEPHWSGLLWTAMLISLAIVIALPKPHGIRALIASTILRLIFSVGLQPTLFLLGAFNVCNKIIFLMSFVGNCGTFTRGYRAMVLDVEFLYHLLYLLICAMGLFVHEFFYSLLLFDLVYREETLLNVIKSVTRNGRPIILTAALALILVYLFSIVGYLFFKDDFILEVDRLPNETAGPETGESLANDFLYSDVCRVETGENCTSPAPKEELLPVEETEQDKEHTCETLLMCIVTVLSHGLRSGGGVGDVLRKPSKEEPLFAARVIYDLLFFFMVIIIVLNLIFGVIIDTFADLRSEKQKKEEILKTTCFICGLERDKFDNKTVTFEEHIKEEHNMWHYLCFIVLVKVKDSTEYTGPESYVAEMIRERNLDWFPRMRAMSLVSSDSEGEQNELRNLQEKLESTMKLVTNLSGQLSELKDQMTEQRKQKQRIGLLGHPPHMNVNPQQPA
assay notes: Ca2+ release from ER stores of saponin-permeabilized DT40-IP3R1 cells, Mag-fluo-4
assay endpoint: EC50 (nM)
Reply with just the number (in nM).

Tell me the measured EC50 of O=P(O)(O)O[C@@H]1[C@@H](O)[C@@H](O[C@H]2[C@@H](OP(=O)(O)O)[C@H](n3cc(COCCOCCOCCOCc4cn([C@@H]5O[C@H](CO)[C@@H](O[C@H]6O[C@H](CO)[C@@H](OP(=O)(O)O)[C@H](OP(=O)(O)O)[C@H]6O)[C@H]5OP(=O)(O)O)nn4)nn3)O[C@@H]2CO)O[C@H](CO)[C@H]1OP(=O)(O)O [12b, triazolophostin dimer 12b] , please.
14.1

And for O=P(O)(O)O[C@@H]1[C@@H](O)[C@@H](O[C@H]2[C@@H](OP(=O)(O)O)[C@H](n3cc(COCCOCCOCc4cn([C@@H]5O[C@H](CO)[C@@H](O[C@H]6O[C@H](CO)[C@@H](OP(=O)(O)O)[C@H](OP(=O)(O)O)[C@H]6O)[C@H]5OP(=O)(O)O)nn4)nn3)O[C@@H]2CO)O[C@H](CO)[C@H]1OP(=O)(O)O [12a, triazolophostin dimer 12a] ?
14.8
